- protocol: qHTS assay to identify aromatase inhibitors - cell viability counter screen (AID 743084);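 further: cells stimulated with testosterone during compound exposure; nearly all actives have a fitted effect of over 55% in size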
- settings: MCF-7 aro ERE viability, CellTiter-Fluor, 24 h; series mostly up to 70.3 µM
Inconclusive results are not listed. Calls of active or inactive are those of the source. The call rests on the fitted dose curve; in most records, active means well fitted cell-killing curve with a large enough effect in the repeat runs; inconclusive means weak or mixed curves, or effect the other way; inactive means no such curve, though single readings can be large or run the other way.
Hi! Could you answer with just one of these? class 1 = active, class 0 = inactive

[ask] Tell me the recorded outcome of this test for C[C@@H](O)[C@H]1C(=O)N2C(C(=O)O)=C(S[C@@H]3CN[C@H](CNS(N)(=O)=O)C3)[C@H](C)[C@H]12 .
[reply] class 0

[ask] Please state the recorded outcome for this compound: CCCc1ccc(OC)cc1
[reply] class 0

[ask] Called result for Oc1ccc(CCNCCCCCCNCCc2ccccc2)cc1O
[reply] class 0

[ask] Returns: the outcome recorded for Clc1ccccc1-c1nc(-c2ccncc2)no1 in this assay.
[reply] class 0

[ask] How was O=C1C=CCCC1 classified in this test?
[reply] class 0

[ask] Lab log entry: Cc1ccc2c(Cl)cc(Cl)c(O)c2n1 — outcome as called in the assay?
[reply] class 1

[ask] How was Cc1ccc(S(=O)(=O)NC(=O)NC2CCCC2)cc1 classified in this test?
[reply] class 0

[ask] In this assay, the call recorded for Cc1cc(N)n(-c2ccccc2)n1 was what?
[reply] class 0

[ask] Query: recorded result category for CCCC1CCOC(C)S1 (stereo not drawn) in this test
[reply] class 0

[ask] Query: recorded result category for CCCCCCCCCCCC(=O)OCC in this test
[reply] class 0

[ask] Query: recorded result category for CC(CN=Cc1ccccc1O)N=Cc1ccccc1O (stereo not drawn) in this test
[reply] class 0

[ask] Kindly provide the recorded test outcome for the following compound: C[C@]12CCC(=O)C=C1[C@@H]1C[C@@H]1[C@H]1[C@@H]3[C@@H]4C[C@@H]4[C@@]4(CCC(=O)O4)[C@@]3(C)CC[C@@H]12
[reply] class 0

[ask] What did the test return for CC(C(=O)O)c1ccc(/C=C2\CCCCC2=O)cc1 (stereo not drawn) ?
[reply] class 0

[ask] Can you look up the reported call for NCCOCCOCCN for me?
[reply] class 0

[ask] Please state the recorded outcome for this compound: FC1(F)C(F)(F)C(F)(F)C2(F)C(F)(C1(F)F)C(F)(F)C(F)(F)C1(F)C(F)(F)C(F)(F)C(F)(F)C(F)(F)C12F (stereo not drawn)
[reply] class 0

[ask] // outcome(item) with item = CCCCCCCCS
[reply] class 0

[ask] Recorded test outcome, item CCOc1ccc(NC(C)=O)cc1N
[reply] class 0

[ask] Record request — test call for CCCCCC1CCC(=O)O1 (stereo not drawn)
[reply] class 0

[ask] // outcome(item) with item = C(/C=C/C=C/Nc1ccccc1)=Nc1ccccc1
[reply] class 0

[ask] Give the logged outcome of this assay for the following compound: CC(=O)Nc1ccccc1O
[reply] class 0

[ask] How was CC1=C(C)C(=O)C(C(CCCCCC(=O)O)c2ccccc2)=C(C)C1=O (stereo not drawn) classified in this test?
[reply] class 0

[ask] # fetch the recorded call for Cc1cccc(C)c1NC(=O)CN1CCCC1 here
[reply] class 0

[ask] Record lookup: outcome of this test for CC(C)(C)N ?
[reply] class 0

[ask] // outcome(item) with item = C=CCCC
[reply] class 0

[ask] Could you check what this test reported for CC(C)(C)c1ccc(CCC=O)cc1 ?
[reply] class 0

[ask] Outcome? CCC(C)CCCC(C)(C)O (stereo not drawn)
[reply] class 0

[ask] Which outcome was assigned to O=c1c2ccccc2oc2ccccc12 in this test?
[reply] class 0

[ask] Dear all, I need the recorded test outcome for Cc1nc(C)c(C)nc1C , thank you.
[reply] class 0

====

- protocol: qHTS assay to identify small molecule antagonists of the glucocorticoid receptor (GR) signaling pathway - cell viability counter screen (AID 720693); further: nearly all actives have a fitted effect of over 55% in size
- settings: GR-bla HeLa viability, CellTiter-Glo luminescence, 18 h, with 5 nM dexamethasone present; series mostly up to 58.5 µM
Inconclusive results are not listed. Activity calls are given as the source filed them. Calls follow the shape of the dose curve; as a rule, active = well fitted cell-killing curve with a large enough effect in the repeat runs; inconclusive = weak or mixed curves, or effect the other way; inactive = no such curve, though single readings can be large or run the other way.
Respond only with the outcome that fits, drawn from active, inactive

[ask] Hello, I am checking results. What call was entered for CCCCCCC/C=C/C=O ?
[reply] inactive

[ask] Test call for this compound, please: CC1(C)[C@@H]2CC[C@]3(C2)[C@@H]1C(=O)CCC3(C)C
[reply] inactive

[ask] Hey, what did the test say about COc1ccc(CN(CCN(C)C)c2ncccn2)cc1 ?
[reply] inactive

[ask] Short answer needed: outcome of this test for C=Cc1ccc(C=C)cc1 ?
[reply] inactive

[ask] Which result was noted for this compound in the test: C=C(C)C(=O)OCCCCCCCCCCOC(=O)C(=C)C
[reply] inactive

[ask] // param item: CC(C)CCCCCCCOC(=O)c1ccc(C(=O)OCCCCCCCC(C)C)c(C(=O)OCCCCCCCC(C)C)c1 ; yields the recorded call
[reply] inactive

[ask] For CS(C)=O , which call appears in the assay record?
[reply] inactive

[ask] How was Cc1c(-c2cccnc2)c2ccccc2n1CCCCC(=O)O classified in this test?
[reply] inactive

[ask] Could you check what this test reported for CC(=O)CC/C=C(\C)CC/C=C(\C)CC/C=C(\C)CCC=C(C)C ?
[reply] inactive

[ask] Each compound tested received a call. Report the one for O=C(O)c1cccc(C(=O)O)c1C(=O)O .
[reply] inactive

[ask] Could you kindly confirm the outcome this assay logged for NC(=O)c1cc[n+](CC2=C(C(=O)[O-])N3C(=O)[C@@H](NC(=O)Cc4cccs4)[C@H]3SC2)cc1 ?
[reply] inactive

[ask] Call for entry O=C(O)c1ccncc1 :
[reply] inactive

[ask] Field: outcome | Entry: Cc1ccc(S(=O)(=O)NC(=O)NC2CCCC2)cc1
[reply] inactive

[ask] State the result this test recorded for O=c1c2ccccc2oc2ccccc12 .
[reply] inactive

[ask] Would you mind telling me which call this test gave O=C(Nc1ccccc1)c1cc([N+](=O)[O-])ccc1Cl ?
[reply] inactive

[ask] Per the records of this test, what outcome belongs to CC(=O)Nc1ccn(C2COC(COC(=O)c3ccccc3)O2)c(=O)n1 (centres undefined) ?
[reply] inactive

[ask] Dear colleague, could you share the recorded outcome for C1CCN(CN2CCCCC2)CC1 when you have a moment?
[reply] inactive

[ask] Per the assay record, what outcome was assigned to CC(C)(C)c1ccc(CCC=O)cc1 ?
[reply] inactive

[ask] What outcome does the record of this test show for C=CC(=O)NC(C)(C)C ?
[reply] inactive

[ask] What did the test return for C=C[Si](OCC)(OCC)OCC ?
[reply] inactive

[ask] Query: recorded result category for CCc1ccc(C(=O)C(C)CN2CCCCC2)cc1 (centres undefined) in this test
[reply] inactive

[ask] Which outcome was assigned to CCOc1ccc(NC(C)=O)cc1N in this test?
[reply] inactive

[ask] Identify the outcome logged in this assay for the compound shown: CCCc1ccc(OC)cc1
[reply] inactive

[ask] For CCCCOC(=O)CC#N , which call appears in the assay record?
[reply] inactive

[ask] Identify the outcome logged in this assay for the compound shown: Nc1ccccc1Nc1ccccc1
[reply] active

[ask] Could you please tell me the result logged for CCCCCCCCCCCCCCCCN in this assay?
[reply] inactive

[ask] Recorded test call requested for Nc1ccc(F)cc1F
[reply] inactive

[ask] What call does the record list for C[C@@H](O)[C@H]1C(=O)N2C(C(=O)O)=C(S[C@@H]3CN[C@H](CNS(N)(=O)=O)C3)[C@H](C)[C@H]12 ?
[reply] inactive

[ask] Would you mind telling me which call this test gave CC1=CC(=C(c2ccc(N)cc2)c2ccc(N)cc2)C=CC1=N ?
[reply] inactive

[ask] Status in this test for CCCCOC(=O)C(C)Oc1ccc(Oc2ccc(C(F)(F)F)cn2)cc1 (centres undefined) ?
[reply] inactive

[ask] Assay result, entry CC1=C(C)C(=O)C(C(CCCCCC(=O)O)c2ccccc2)=C(C)C1=O (centres undefined) — outcome?
[reply] inactive

[ask] Tell me the recorded outcome of this test for Cc1nc2sccn2c(=O)c1CCN1CCC(=C(c2ccc(F)cc2)c2ccc(F)cc2)CC1 .
[reply] inactive

[ask] Record lookup: outcome of this test for CCOCCn1c(N2CCCN(C)CC2)nc2ccccc21 ?
[reply] inactive

[ask] Could you please tell me the result logged for CCCC1CCOC(C)S1 (centres undefined) in this assay?
[reply] inactive

[ask] # outcome recorded in this test, key = CCCC1CCCC(=O)O1 (centres undefined)
[reply] inactive

[ask] Recorded call for CC(=O)Oc1cccc2c1C(=O)c1c(OC(C)=O)cc(C(=O)O)cc1C2=O ?
[reply] inactive

[ask] # fetch the recorded call for OCCCO here
[reply] inactive

[ask] What is the recorded call for this compound in the test? C[Si](C)(C)O[Si](C)(C)O[Si](C)(C)C
[reply] inactive

[ask] Entry COC(=O)Cc1cccc2ccccc12 : call = ?
[reply] inactive

[ask] # fetch the recorded call for O=C(O)c1cccnc1Nc1cccc(C(F)(F)F)c1 here
[reply] inactive

[ask] Dear all, I need the recorded test outcome for O=C1C=CCCC1 , thank you.
[reply] inactive

[ask] Outcome logged for Cc1ccc(NC=O)c(C)c1 in this assay:
[reply] inactive

[ask] Which outcome did this test record for the compound CCCCCCCCC(=O)OCC(C)OC(=O)CCCCCCCC (centres undefined) ?
[reply] inactive

[ask] Recorded test call requested for O=C(O)CCc1nc2ccccc2[nH]1
[reply] inactive

[ask] Any idea what this test logged for C=C[Si]1(C)O[Si](C)(C=C)O[Si](C)(C=C)O[Si](C)(C=C)O1 (centres undefined) ?
[reply] inactive

[ask] What did the test return for CCCCCCCCCCCCSC#N ?
[reply] inactive

[ask] Fill in: this test's call for O=[N+]([O-])c1ccc(Cl)cc1Cl is ___
[reply] inactive

[ask] Returns: the outcome recorded for O=C(O)c1cc(C(=O)O)cc([N+](=O)[O-])c1 in this assay.
[reply] inactive

[ask] Given C/C(=C\C(C)CC(C)CC(C)C)C1CC(=O)OC1=O (centres undefined) , state the outcome it received in this test.
[reply] inactive

[ask] Answer briefly: the call reported for N#Cc1ccc(CC(=O)c2cccc(C(F)(F)F)c2)cc1 in this assay.
[reply] inactive

[ask] I'd appreciate the recorded outcome for CCCN(C1CCN(C(=O)C2CCNCC2)CC1)[C@@H]1CCc2ccc(OC)cc2C1 from this test.
[reply] inactive

[ask] What did this assay record as the result for CCN(CCCCOC(=O)c1ccc(OC)c(OC)c1)C(C)Cc1ccc(OC)cc1 (centres undefined) ?
[reply] inactive

[ask] Identify the outcome logged in this assay for the compound shown: Nc1cccc2c(=O)[nH][nH]c(=O)c12
[reply] inactive

[ask] Would you mind telling me which call this test gave Nc1nc(Cl)nc2c1ncn2[C@H]1C[C@H](O)[C@@H](CO)O1 ?
[reply] inactive
